# key: entry, value: IC50
Test system: CCRF-CEM
Experiment Summary: Cytotoxicity against human CCRF-CEM cells assessed as inhibition of cell growth incubated for 72 hrs by MTS assay
Type: functional, cell-based

Chem Smiles: C=C(C)[C@@H]1CC[C@]2(C(=O)OCc3ccccc3)CC[C@]3(C)[C@H](CC[C@@H]4[C@@]5(C)CC=C(OS(=O)(=O)C(F)(F)F)C(C)(C)[C@@H]5CC[C@]43C)[C@@H]12
Study System: CCRF-CEM
IC50, µM: 14
--
Chem Smiles: C=C(C)[C@@H]1CC[C@]2(C(=O)O)CC[C@]3(C)[C@H](CC[C@@H]4[C@@]5(C)CC=C(c6cccc(OC)c6)C(C)(C)[C@@H]5CC[C@]43C)[C@@H]12
Study System: CCRF-CEM
IC50, µM: 15
--
Chem Smiles: C=C(C)[C@@H]1CC[C@]2(C(=O)O)CC[C@]3(C)[C@H](CC[C@@H]4[C@@]5(C)CC=C(c6ccc(O)cc6)C(C)(C)[C@@H]5CC[C@]43C)[C@@H]12
Study System: CCRF-CEM
IC50, µM: 0.69
--
Chem Smiles: C=C(C)[C@@H]1CC[C@]2(C(=O)O)CC[C@]3(C)[C@H](CC[C@@H]4[C@@]5(C)CC=C(c6cccc(O)c6)C(C)(C)[C@@H]5CC[C@]43C)[C@@H]12
Study System: CCRF-CEM
IC50, µM: 3.9
--
Chem Smiles: C=C(C)[C@@H]1CC[C@]2(C(=O)O)CC[C@]3(C)[C@H](CC[C@@H]4[C@@]5(C)CC=C(c6ccc(C(=O)OC)cc6)C(C)(C)[C@@H]5CC[C@]43C)[C@@H]12
Study System: CCRF-CEM
IC50, µM: 46
--
Chem Smiles: C=C(C)[C@@H]1CC[C@]2(C(=O)O)CC[C@]3(C)[C@H](CC[C@@H]4[C@@]5(C)CC=C(c6ccccc6O)C(C)(C)[C@@H]5CC[C@]43C)[C@@H]12
Study System: CCRF-CEM
IC50, µM: 10

---

# key: entry, value: remaining at 0.25 h, 2 µM
Experiment Summary: Chemical stability of the compound in PBS buffer assessed as compound remaining at pH 7.4 at 2 uM measured after 15 mins by RF-MS analysis
Type: physicochemical
Experimental Parameters: read-out: Stability
Endpoint Name: remaining at 0.25 h, 2 µM (%)

Chem Smiles: C=C(C)[C@@H]1CC[C@]2(C(=O)O)CC[C@]3(C)[C@H](CC[C@@H]4[C@@]5(C)CC=C(c6ccc(O)cc6)C(C)(C)[C@@H]5CC[C@]43C)[C@@H]12
Endpoint Name: remaining at 0.25 h, 2 µM
Readout Value: 98.9
--
Chem Smiles: C=C(C)[C@@H]1CC[C@]2(C(=O)O)CC[C@]3(C)[C@H](CC[C@@H]4[C@@]5(C)CC=C(c6cccc(O)c6)C(C)(C)[C@@H]5CC[C@]43C)[C@@H]12
Endpoint Name: remaining at 0.25 h, 2 µM
Readout Value: 99.6
--
Chem Smiles: C=C(C)[C@@H]1CC[C@]2(C(=O)O)CC[C@]3(C)[C@H](CC[C@@H]4[C@@]5(C)CC=C(c6cccc(N)c6)C(C)(C)[C@@H]5CC[C@]43C)[C@@H]12
Endpoint Name: remaining at 0.25 h, 2 µM
Readout Value: 95.5

---

Experiment Summary: Cytotoxicity against human BJ cells assessed as inhibition of cell growth incubated for 72 hrs by MTS assay
Format: toxicity, cell-based

Chem Smiles: C=C(C)[C@@H]1CC[C@]2(C(=O)O)CC[C@]3(C)[C@H](CC[C@@H]4[C@@]5(C)CC=C(c6cccc(N)c6)C(C)(C)[C@@H]5CC[C@]43C)[C@@H]12
IC50 at 72 h: 50 µM

Chem Smiles: C=C(C)[C@@H]1CC[C@]2(C(=O)O)CC[C@]3(C)[C@H](CC[C@@H]4[C@@]5(C)CC=C(c6ccccc6OC)C(C)(C)[C@@H]5CC[C@]43C)[C@@H]12
IC50 at 72 h: 48 µM

Chem Smiles: C=C(C)[C@@H]1CC[C@]2(C(=O)O)CC[C@]3(C)[C@H](CC[C@@H]4[C@@]5(C)CC=C(c6ccccc6O)C(C)(C)[C@@H]5CC[C@]43C)[C@@H]12
IC50 at 72 h: > 50 µM

Chem Smiles: C=C(C)[C@@H]1CC[C@]2(C(=O)O)CC[C@]3(C)[C@H](CC[C@@H]4[C@@]5(C)CC=C(c6ccccc6N)C(C)(C)[C@@H]5CC[C@]43C)[C@@H]12
IC50 at 72 h: > 50 µM

Chem Smiles: C=C(C)[C@@H]1CC[C@]2(C(=O)O)CC[C@]3(C)[C@H](CC[C@@H]4[C@@]5(C)CC=C(c6ccc([N+](=O)[O-])cc6)C(C)(C)[C@@H]5CC[C@]43C)[C@@H]12
IC50 at 72 h: > 50 µM
